tested on: S. cerevisiae Mot1-301 ts growth rescue, BacTiter-Glo ATP luminescence; assay: restored Mot1-301 yeast growth at 38.5C – whole organism, S. cerevisiae, Mot1-301 ts mutant, luminescence, dose retest, SUMOylation pathway inhibitor project, confirmation (AID 463204);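 also: growth at restrictive 38.5 degrees C of Mot1-301 OY566 strain; actives raise luminescence by restoring growth of the ts mutant at high temperature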
The source made the active and inactive calls.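 The calls were made as follows: active = AC50 no more than ten times the top concentration tested, that is within one log above it; inconclusive = flat curve fit with activity between 30% and 70%, or invalid poor fit; inactive = AC50 beyond ten times the top tested dose.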
Write down one outcome, taken from active, inactive

Challenge: Which outcome was entered for the compound Cc1ccc(N(CC(=O)NCCc2ccc(Cl)cc2)S(=O)(=O)c2c(C)noc2C)cc1 in this test?
Response given: inactive

Challenge: Which outcome was entered for the compound COc1ccc(-c2csc(NC(=O)CCS(=O)(=O)c3ccccc3)n2)c(OC)c1 in this test?
Response given: inactive

Challenge: Which outcome was entered for the compound O=C(OCc1nnc(-c2ccccc2)o1)c1ccc([N+](=O)[O-])o1 in this test?
Response given: active

Challenge: Which outcome was entered for the compound O=C(Nc1cccc(N=Cc2cc(Br)cc(Br)c2O)c1)c1ccco1 in this test?
Response given: active

Challenge: Which outcome was entered for the compound CCN(CC)c1ccc(/C=N/NC(=O)OC(C)(C)C)cc1 in this test?
Response given: inactive

Challenge: Which outcome was entered for the compound c1ccc(-c2nc(N3CCOCC3)c3ccccc3n2)nc1 in this test?
Response given: inactive

Challenge: Which outcome was entered for the compound Cn1c(CSc2nc3ccccc3s2)nnc1SCC(=O)NCCN1CCOCC1 in this test?
Response given: inactive

Challenge: Which outcome was entered for the compound COc1ccc(-c2csc(NC(=O)C3CSC4(C)CCC(=O)N34)n2)cc1 (stereo not given) in this test?
Response given: inactive

Challenge: Which outcome was entered for the compound Cc1ccc(NC(=O)COc2ccccc2C(=O)NCCN(C)C)cc1 in this test?
Response given: inactive

Challenge: Which outcome was entered for the compound COc1ccc(S(=O)(=O)NC(C)C(=O)NCc2ccccn2)cc1Cl (stereo not given) in this test?
Response given: inactive

Challenge: Which outcome was entered for the compound CC(=O)c1cccc(CN2CCCC(N3CCN(c4ccccc4F)CC3)C2)c1 (stereo not given) in this test?
Response given: inactive

Challenge: Which outcome was entered for the compound CCCCc1ccc(S(=O)(=O)NNC(=S)NCc2ccco2)cc1 in this test?
Response given: inactive

Challenge: Which outcome was entered for the compound CC1(C)Oc2ccc3ccc(=O)oc3c2/C(=C/Nc2ccc(O)cc2)C1=O in this test?
Response given: inactive

Challenge: Which outcome was entered for the compound CSc1nncc(/C(C)=N\Nc2cccc(C)c2)n1 in this test?
Response given: inactive

Challenge: Which outcome was entered for the compound COc1cccc(Cn2cnc3c(NS(=O)(=O)c4cccc(Cl)c4Cl)c(C)c(C)cc32)c1 in this test?
Response given: inactive

Challenge: Which outcome was entered for the compound COc1ccc(CC(=O)NCCN2CCOCC2)cc1 in this test?
Response given: inactive

Challenge: Which outcome was entered for the compound CCN(CC)CCCNC(=O)C1c2ccccc2C(=O)N(CCOC)C1c1ccc(F)cc1 (stereo not given) in this test?
Response given: inactive

Challenge: Which outcome was entered for the compound CCOC(=O)C1=C(C)NC(=O)CC1c1cc2c(cc1[N+](=O)[O-])OCO2 (stereo not given) in this test?
Response given: inactive

Challenge: Which outcome was entered for the compound Cc1cccc(N2C(=O)/C(=C/c3cccnc3)SC2=S)c1 in this test?
Response given: inactive

Challenge: Which outcome was entered for the compound COc1cc([C@@H]2CC=C(C(=O)O)[C@H](c3ccccc3F)N2S(=O)(=O)c2ccc(C)cc2)cc(OC)c1OC in this test?
Response given: inactive

Challenge: Which outcome was entered for the compound CCN(CC(=O)NCc1ccc(Cl)cc1)C(=O)/C=C/c1ccc(C#N)cc1 in this test?
Response given: inactive

Challenge: Which outcome was entered for the compound Cc1ccc(-c2nnc(SCC#N)n2N)cc1 in this test?
Response given: inactive

Challenge: Which outcome was entered for the compound O=C1CCC(=O)N1CCOP1(=O)COc2ccccc2OC1 in this test?
Response given: inactive

Challenge: Which outcome was entered for the compound CC(=O)C(C(c1ccccc1)c1c[nH]c2ccccc12)[N+](=O)[O-] (stereo not given) in this test?
Response given: active

Challenge: Which outcome was entered for the compound O=C(Nc1ccccc1)N1CCN(CCc2ccccc2)CC1 in this test?
Response given: inactive

Challenge: Which outcome was entered for the compound Cc1ccc2c(c1)N(CC(=O)NCC1CCCO1)C(=O)C(C)O2 (stereo not given) in this test?
Response given: inactive

Challenge: Which outcome was entered for the compound Cc1c(N=Cc2cc(Br)cc(Br)c2O)cccc1C(=O)O in this test?
Response given: active

Challenge: Which outcome was entered for the compound COc1cc(CN2CCN(c3ncccn3)CC2)cc(OC)c1 in this test?
Response given: inactive

Challenge: Which outcome was entered for the compound CCc1c(C(=O)N2CCN(c3ccccc3F)CC2)[nH]c(C)c1C(C)=O in this test?
Response given: inactive

Challenge: Which outcome was entered for the compound CC1=NC2(CCCc3c2no[n+]3[O-])N(O)C1(C)C (stereo not given) in this test?
Response given: inactive

Challenge: Which outcome was entered for the compound CCNc1ccc(S(=O)(=O)N(C)C)cc1NCC(=O)Nc1ccccc1Br in this test?
Response given: inactive

Challenge: Which outcome was entered for the compound Cc1cc(OCC(=O)NCC2CCC(C(=O)O)CC2)c2c(C)c(C)c(=O)oc2c1 (stereo not given) in this test?
Response given: inactive

Challenge: Which outcome was entered for the compound CCOC(=O)C1CCN(CC(O)COc2ccc(C(C)(C)C)cc2)CC1 (stereo not given) in this test?
Response given: inactive

Challenge: Which outcome was entered for the compound CCC1SC2=NC(C)=C(C(=O)OCCOC)C(c3ccc(C(=O)OC)cc3)N2C1=O (stereo not given) in this test?
Response given: inactive

Challenge: Which outcome was entered for the compound CSCCc1nc(SCC(=O)Nc2nnc(C)s2)[nH]c1C in this test?
Response given: inactive

Challenge: Which outcome was entered for the compound COc1ccc(C(=O)O)cc1S(=O)(=O)NCCN(C)C in this test?
Response given: inactive

Challenge: Which outcome was entered for the compound CC(C)C(NC(=S)Nc1ccccc1)C(=O)O (stereo not given) in this test?
Response given: inactive

Challenge: Which outcome was entered for the compound Cc1cc(C)cc(C(=O)NC(CC(N)=O)c2ccc(N3CCC(N4CCCCC4)CC3)c([N+](=O)[O-])c2)c1 (stereo not given) in this test?
Response given: inactive

Challenge: Which outcome was entered for the compound CC1(C)CCc2cc(CN3CCN(c4ccccn4)CC3)ccc2O1 in this test?
Response given: inactive

Challenge: Which outcome was entered for the compound CN(CCOc1ccc(Cl)cc1)CC(=O)Nc1ccc(OC(F)F)cc1 in this test?
Response given: inactive

Challenge: Which outcome was entered for the compound CCN(CC)S(=O)(=O)c1ccc(NC(=O)C(C)N(c2ccccc2)S(C)(=O)=O)cc1 (stereo not given) in this test?
Response given: inactive

Challenge: Which outcome was entered for the compound COC(=O)CN1C(=O)c2cccc3cccc1c23 in this test?
Response given: inactive

Challenge: Which outcome was entered for the compound O=C(O)CSc1ncnc2sc(-c3ccccc3)cc12 in this test?
Response given: inactive

Challenge: Which outcome was entered for the compound CN1CCN(CC(=O)N2c3ccccc3C(=O)Nc3cccnc32)CC1 in this test?
Response given: inactive

Challenge: Which outcome was entered for the compound CCc1c(C)nc(N2CCN(Cc3ccccc3)CC2)[nH]c1=O in this test?
Response given: inactive

From: PubChem BioAssay AID463204
